Tested on: NRF2 (nuclear factor erythroid 2-related factor 2)
Test Protocol: NRF2 +/-GSH activation assay (DiscoverX PathHunter NRF2 translocation kit, U2OS cells)
Assay type: cell-based
Experimental Conditions: +GSH; 30 minute compound-GSH pre-incubation; read-out: NRF2 activation +GSH EC50
Description: Measuring Compound Activation Effects on the Anti-Inflammatory Transcription Factor NRF2 in DiscoverX PathHunter NRF2 Translocation Kit Potency and efficacy of compounds of formula (I) against the target of interest to activate NRF2 (nuclear factor erythroid 2-related factor 2) were determined using the PathHunter NRF2 translocation kit (DiscoverX). […] Percentage activation was calculated by normalising the sample data to the high and low controls used within each plate (+/−DMF).
pEC50: −log10 of the molar value.
Test Readout: pEC50

// known answers, use as guide
C=C(Cc1nc(Cc2ccc(OC)c(Cl)c2)no1)C(=O)O : < 4.00
C=C(Cc1nc(C2(c3ccc(Cl)c(F)c3)CC2)no1)C(=O)O : < 4.00

Value of measured pEC50 for the entry `C=C(Cc1nc(C(F)(F)c2ccc(F)cc2)no1)C(=O)O` : < 4.00
